Provenance of the data: paper PMC4703549

IC50 for assorted compounds
# System: TNK2 D163E cells
# Format: cell-based, murine
# SETUP_CONDITIONS: Ba/F3 TNK2 D163E, no IL3, 72 hours, MTS
The reply should be a number in nM, with the unit left off.

A selection of reference data follows.
COMPOUND | IC50 [nM]
CN1c2ccccc2C(=O)Nc2cnc(Nc3ccc(N4CCC(O)CC4)cc3)nc21 | 16
COc1cc(N2CCN(C)CC2)ccc1Nc1ncc2c(n1)N(C)c1ccccc1C(=O)N2 | 38

# context switch: different compound, same IC50
Ask: I am curious: what IC50 value has been reported for c1ccc(-c2oc3ncnc(NC[C@@H]4CCCO4)c3c2-c2ccccc2)cc1 ?
Reply: 91
